PROCEDURE DETAILS: in vivo
TEST PARAMETERS: male, Wistar, rat, in vivo, 500 mg/kg
ASSAY ENDPOINT: concentration at 1 h (ng/mL)
Answers are plain numbers, in ng/mL.

Q: Tell us which concentration at 1 h value is on record for CCCCOC(=O)c1ccc(O)cc1 [Butyl paraben, Butyl 4-hydroxybenzoate]
Result: 161

====

Kindly supply the reported C1h/Cmax values for the records listed here.
PROCEDURE DETAILS: in vivo
TEST PARAMETERS: parent compound; 500 mg/kg; female
Protocol: These studies were conducted similarly to OECD TG 417 applying 500 and 1000 mg/kg body weight (bw) test item via oral gavage to 10 males and 10 females per dose group. […] The limit of quantification was determined as 10 ng/mL for all parabens, and as 130 ng/mL for p-hydroxybenzoic acid. […]

In [3]: df
Out[3]:
                                   compound  observed
0  CCCOC(=O)c1ccc(O)cc1 [Propyl paraben, Propyl 4-hydroxybenzoate]      4.9%
1  CCCCOC(=O)c1ccc(O)cc1 [Butyl paraben, Butyl 4-hydroxybenzoate]      4.3%
2  COC(=O)c1ccc(O)cc1 [Methyl paraben, Methyl 4-hydroxybenzoate]      1.6%

Consider the record given below.
Q: Tell us which C1h/Cmax value is on record for CCOC(=O)c1ccc(O)cc1 [Ethyl paraben, Ethyl 4-hydroxybenzoate]
Result: 2.0%
